# Test system: HCT-15 colon
# ASSAY_SUMMARY: NCI tumour cell line growth inhibition, 48 h
Listing of entries alongside the reported TGI.
OBSERVABLE: TGI

INSERT INTO assay_data (compound, observable, result) VALUES
  ('O=C(O)/C(Cl)=C(\Cl)C(=O)c1ccccc1', 'TGI', '> 100 µM'),
  ('CC1CN=C(NS(=O)(=O)c2cc(C(=O)Nc3ccc(Cl)cc3)c(Cl)cc2S)NN1 (stereo not given)', 'TGI', '> 100 µM'),
  ('C=CC(O)(CBr)CCC(Br)C(=C)C (stereo not given)', 'TGI', '> 10 µM'),
  ('COc1cc(C2C3=C(COC3=O)Oc3cc4c(cc32)OCO4)ccc1O (stereo not given)', 'TGI', '> 100 µM'),
  ('CCOC(=O)c1cc(-n2nnc3ccccc32)cn1C', 'TGI', '> 10 µM'),
  ('COCCN(CCNC(=O)c1cccc2c(N)c3cccc(C)c3nc12)CCOC', 'TGI', '13 µM'),
  ('COc1cc(Oc2c(C)c(Cl)c(OC)c(Cl)c2OC)c2c(c1Cl)COC2=O', 'TGI', '> 100 µM'),
  ('COc1cc2c3cc1Oc1c(O)c(OC)cc4c1C(Cc1ccc(O)c(c1)Oc1ccc(cc1)CC3N(C)CC2)N(C)CC4 (stereo not given)', 'TGI', '23.8 µM'),
  ('COc1cccc(/C=C/C(=O)c2ccc(SC)cc2)c1OC', 'TGI', '30.3 µM'),
  ('COC1C(O)CC(OC2CC(OC3CC(O[C@@H]4C(=O)c5c(cc6cc(OC7CC(OC8CC(O)C(O)C(C)O8)C(O)C(C)O7)c(C)c(O)c6c5O)CC4[C@H](OC)C(=O)O)OC(C)C3O)OC(C)C2O)OC1C (stereo not given in full)', 'TGI', '> 33.3 µM');
